Conditions: in n-butanol, 313.15 K
QUANTITY KIND: solubility (mole fraction)
Please give the numeric answer without any surrounding text.

# input molecule: CSCC[C@H](NC(=O)OCC1c2ccccc2-c2ccccc21)C(=O)O ; wanted: its solubility (mole fraction)
0.0394

----------
Conditions: in isopropanol, 318.15 K
QUANTITY KIND: solubility (mole fraction)
Number only, no unit.

Quick one: solubility (mole fraction) for CSCC[C@H](NC(=O)OCC1c2ccccc2-c2ccccc21)C(=O)O ?
0.0474

----------
Details: in sec-butanol, 303.15 K
QUANTITY KIND: solubility (mole fraction)
Give a plain numeric answer without units written out.

Which solubility (mole fraction) is listed for CSCC[C@H](NC(=O)OCC1c2ccccc2-c2ccccc21)C(=O)O ?
0.0311

----------
Details: in isopentanol, 298.15 K
QUANTITY KIND: solubility (mole fraction)
Just the number.

solubility (mole fraction) for CSCC[C@H](NC(=O)OCC1c2ccccc2-c2ccccc21)C(=O)O ?
0.00778

----------
Settings: in n-butyl acetate, 283.15 K
QUANTITY KIND: solubility (mole fraction)
// return just the number, without any unit appended

Which solubility (mole fraction) reading was recorded for the molecule CSCC[C@H](NC(=O)OCC1c2ccccc2-c2ccccc21)C(=O)O ?
0.0129

----------
Conditions: in n-butanol, 298.15 K
QUANTITY KIND: solubility (mole fraction)
Please give only the number in your answer, with no unit.

Param item = CSCC[C@H](NC(=O)OCC1c2ccccc2-c2ccccc21)C(=O)O ; retrieve measured solubility (mole fraction).
0.0237

----------
Details: in n-butanol, 293.15 K
QUANTITY KIND: solubility (mole fraction)
No unit in the answer, only the number.

What does the data say about its solubility (mole fraction)? Entry: CSCC[C@H](NC(=O)OCC1c2ccccc2-c2ccccc21)C(=O)O
0.0204

----------
Details: in n-propanol, 313.15 K
QUANTITY KIND: solubility (mole fraction)
Just the number, please, no unit attached.

Given CSCC[C@H](NC(=O)OCC1c2ccccc2-c2ccccc21)C(=O)O , state its recorded solubility (mole fraction).
0.0407

----------
Conditions: in isobutanol, 298.15 K
QUANTITY KIND: solubility (mole fraction)

Give the measured solubility (mole fraction) of CSCC[C@H](NC(=O)OCC1c2ccccc2-c2ccccc21)C(=O)O .
0.0102

----------
Conditions: in isobutanol, 293.15 K
QUANTITY KIND: solubility (mole fraction)
Could you respond with only the numeric value?

Fill in: solubility (mole fraction) of CSCC[C@H](NC(=O)OCC1c2ccccc2-c2ccccc21)C(=O)O is ___
0.00736

----------
Settings: in isobutanol, 283.15 K
QUANTITY KIND: solubility (mole fraction)
# respond with the number and nothing more

Return reported solubility (mole fraction); argument: CSCC[C@H](NC(=O)OCC1c2ccccc2-c2ccccc21)C(=O)O
0.00438

----------
Conditions: in n-propanol, 288.15 K
QUANTITY KIND: solubility (mole fraction)

Requested field: solubility (mole fraction). Item: CSCC[C@H](NC(=O)OCC1c2ccccc2-c2ccccc21)C(=O)O
0.0141

----------
Conditions: in 2-butanone, 288.15 K
QUANTITY KIND: solubility (mole fraction)

Field request: solubility (mole fraction) | item: CSCC[C@H](NC(=O)OCC1c2ccccc2-c2ccccc21)C(=O)O
0.0314

----------
Details: in n-propyl acetate, 323.15 K
QUANTITY KIND: solubility (mole fraction)
A bare number is all that is needed in reply.

GET /values?readout=solubility (mole fraction)&item= CSCC[C@H](NC(=O)OCC1c2ccccc2-c2ccccc21)C(=O)O
0.0456
